OBSERVED_PROPERTY: melting point

Illustrative cases are given below, each with its answer.
O=C(CCCCCOc1ccc(OCc2ccccc2)cc1)C(F)(F)F
59 to 60 °C
O=S(=O)(F)CCCCCc1ccc(OCc2ccccc2)cc1
66 to 68 °C
COS(=O)(=O)CCCCCCCc1ccc(OCc2ccccc2)cc1
57 to 59 °C
O=C(CCCCOc1ccccc1O)C(F)(F)F
51 to 52 °C
O=S(=O)(F)CCCCCCCc1ccc(O)cc1
47 to 51 °C
O=S(=O)(F)CCCCCCCc1ccc(OCc2ccccc2)cc1
35 to 38 °C
O=C(CCCCCCOc1ccc(OCc2ccccc2)cc1)C(F)(F)F
82 to 83 °C
O=C(CCCOc1ccc(OCc2ccccc2)cc1)C(F)(F)F
59 to 61 °C
O=S(=O)(F)CCCCOc1ccccc1
74 to 76 °C
O=C(CCCCOc1ccc(O)cc1)C(F)(F)F
63 to 64 °C

Here is another molecule to look at.
So for `O=C(CCCCOc1ccccc1)C(F)(F)F` , the logged melting point turned out to be 50 to 51 °C
